- system.tested: T1, sIL-6R (soluble IL-6 receptor; SBH Sciences) (human, UniProt P08887 20-365)
- T1 construct: also called human IL-6R
- T1 sequence: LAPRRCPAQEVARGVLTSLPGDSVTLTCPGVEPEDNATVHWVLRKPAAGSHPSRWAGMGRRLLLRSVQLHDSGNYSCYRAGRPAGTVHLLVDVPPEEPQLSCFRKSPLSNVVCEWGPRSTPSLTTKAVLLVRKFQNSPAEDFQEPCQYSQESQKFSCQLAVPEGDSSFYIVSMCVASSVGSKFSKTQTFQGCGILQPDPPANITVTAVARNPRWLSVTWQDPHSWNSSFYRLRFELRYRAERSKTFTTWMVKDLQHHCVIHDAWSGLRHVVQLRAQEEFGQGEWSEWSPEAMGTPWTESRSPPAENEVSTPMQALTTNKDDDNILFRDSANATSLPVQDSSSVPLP
- protocol.notes: SPR (BIAcore 3000), antibody on chip, sIL-6R analyte, 25 C
experimental.readout: Kd (pM)
Write down the numeric answer in pM and omit the unit.

INSERT INTO assay_data (binder, unit_of_measure, numeric_result) VALUES
  ('234# (antibody, human IgG1, kappa, V domains shown) VH: QVQLQESGPGLVRPSQTLSLTCTVSGYSITSDHAWSWVRQPPGRGLEWIGYISYSGMTTYNPSLKSRVTMLRDTSKNQFSLRLSSVTAADTAVYYCARCLARMTAMDYWGQGSLVTVSS VL: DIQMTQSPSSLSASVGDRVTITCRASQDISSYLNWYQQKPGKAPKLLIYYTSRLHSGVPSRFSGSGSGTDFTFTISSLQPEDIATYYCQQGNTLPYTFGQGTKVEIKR', 'pM', 370),
  ('231# (antibody, human IgG1, kappa, V domains shown, also called Sample # 231) VH: QVQLQESGPGLVRPSQTLSLTCTVSGYSITSDHAWSWVRQPPGRGLEWIGYISYSGITTYNPSLKSRVTMLRDTSKNQFSLRLSSVTAADTAVYYCARTLARMTAIDFWGQGSLVTVSS VL: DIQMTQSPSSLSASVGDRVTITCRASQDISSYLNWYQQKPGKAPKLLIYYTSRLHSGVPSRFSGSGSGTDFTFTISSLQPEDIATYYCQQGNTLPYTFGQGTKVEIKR', 'pM', 1.12),
  ('220# (antibody, human IgG1, kappa, V domains shown, also called Sample # 220) VH: QVQLQESGPGLVRPSQTLSLTCTVSGYSITSDHAWSWVRQPPGRGLEWIGYISYSGMITYNPSLKSRVTMLRDTSKNQFSLRLSSVTAADTAVYYCARSLARMTAMDYWGQGSLVTVSS VL: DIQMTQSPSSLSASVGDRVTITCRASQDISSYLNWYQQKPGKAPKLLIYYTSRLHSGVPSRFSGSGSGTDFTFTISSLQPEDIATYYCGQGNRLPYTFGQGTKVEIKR', 'pM', 483),
  ('233# (antibody, human IgG1, kappa, V domains shown) VH: QVQLQESGPGLVRPSQTLSLTCTVSGYSITSDHAWSWVRQPPGRGLEWIGYISYSGMITYNPSLKSRVTMLRDTSKNQFSLRLSSVTAADTAVYYCARTLARTTAIDFWGQGSLVTVSS VL: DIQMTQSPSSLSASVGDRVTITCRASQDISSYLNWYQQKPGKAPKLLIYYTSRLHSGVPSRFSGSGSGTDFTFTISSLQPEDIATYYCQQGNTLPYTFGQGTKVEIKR', 'pM', 387);

# input for lookup
Answer with reported Kd of 243# (antibody, human IgG1, kappa, V domains shown) VH: QVQLQESGPGLVRPSQTLSLTCTVSGYSITSDHAWSWVRQPPGRGLEWIGYISYSGMITYNPSLKSRVTMLRDTSKNQFSLRLSSVTAADTAVYYCARCLARTTAIDFWGQGSLVTVSS VL: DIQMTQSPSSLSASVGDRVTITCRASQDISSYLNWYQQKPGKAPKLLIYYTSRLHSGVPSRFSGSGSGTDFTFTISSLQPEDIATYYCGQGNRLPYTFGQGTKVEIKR
273
